The reported measurements were obtained from patent US11046658B2.

System: Phosphorylated Ribosomal Protein S6 (RPS6) in THP-1 cells
ASSAY COMMENT: THP-1 RPS6 ELISA Assay
Assay type: cell-based, Human
MEASUREMENT CONDITIONS: Homo sapiens; Table A2; THP-1 cells, 10 nM MCP-1; read-out: PI3Kγ_THP1_RPS6_ELISA IC50
As shown below, each of these molecules has a reported IC50 value.

Examples with their reported IC50 follow.
>>> recorded_value("Cc1ccc(C(O)(C(N)=O)C(F)(F)F)cc1-c1cnc(N)c(C#Cc2ccn[nH]2)n1 (stereo not drawn)")
"< 500 nM"
>>> recorded_value("Cc1ccc(C(O)(C(N)=O)C(F)(F)F)cc1-c1cnc(N)c(C#CCC(C)O)n1 (stereo not drawn)")
"< 100 nM"
>>> recorded_value("Cc1ccc(C(O)(C(N)=O)C(F)(F)F)cc1-c1cnc(N)c(C#Cc2cccc(F)c2)n1 (stereo not drawn)")
"< 100 nM"
>>> recorded_value("Cc1ccc(C(O)(C(N)=O)C(F)(F)F)cc1-c1cnc(N)c(C#Cc2ccccn2)n1 (stereo not drawn)")
"< 100 nM"
>>> recorded_value("Cc1ccc(C(O)(C(N)=O)C(F)(F)F)cc1-c1cnc(N)c(C#CC(C)(O)C(C)C)n1 (stereo not drawn)")
"< 100 nM"
>>> recorded_value("CCCc1nc(-c2cc(C(O)(C(N)=O)C(F)(F)F)ccc2C)cnc1N (stereo not drawn)")
"< 500 nM"

Param item = Cc1ccc(C(O)(C(N)=O)C(F)(F)F)cc1-c1cnc(N)c(C#CC2(O)CCN(C)C2=O)n1 (stereo not drawn) ; retrieve measured IC50.
< 100 nM

Which IC50 value is on record for Cc1ccc(C(O)(C(N)=O)C(F)(F)F)cc1-c1cnc(N)c(C#CC2CC2)n1 (stereo not drawn) ?
> 1000 nM

Which IC50 reading was recorded for the molecule Cc1ccc(C(O)(C(N)=O)C(F)(F)F)cc1-c1cnc(N)c(C#Cc2cnccn2)n1 (stereo not drawn) ?
< 100 nM

Any idea what IC50 was measured for COc1cc(C#Cc2nc(-c3cc(C(O)(C(N)=O)C(F)(F)F)ccc3C)cnc2N)cc(OC)c1 (stereo not drawn) ?
< 100 nM

Fill blank: measured IC50 of the molecule Cc1ccc(C(O)(C(N)=O)C(F)(F)F)cc1-c1cnc(N)c(C#Cc2cnn(C)c2)n1 (stereo not drawn) is ____.
< 100 nM

For the molecule shown here, Cc1ccc(C(O)(C(N)=O)C(F)(F)F)cc1-c1cnc(N)c(C#CC2CCOCC2)n1 (stereo not drawn) , give the reported IC50.
< 100 nM
